Target desc: Guanidinoacetate N-methyltransferase (Homo sapiens)
Assay name: Confirmatory Screen for Target Class Profiling of Small Molecule Inhibitors of Methyltransferases (AID 1745852); as to activity change, negative = inhibition: % is scaled to controls: 0 for no effect and ±100 for the full control effect
Conditions: MTase-Glo luminescence, SAH detection, recombinant enzyme; at 57.3 µM (top of the series) unless noted
Hi there, I'd appreciate the recorded activity change, negative = inhibition for every entry that follows.
Write the value in % as a bare number.

Ask: Please report the measured activity change, negative = inhibition for O=C(CCc1nnc2n(Cc3ccc(F)cc3)c(=O)c3ccccc3n12)NCCN1CCCC1 tested on Guanidinoacetate N-methyltransferase (Homo sapiens).
Reply: -0.511

Ask: Fill in activity change, negative = inhibition for CC(C)CCn1c(=O)c2ccccc2n2c(CCC(=O)N3CCN(c4ccc(F)cc4)CC3)nnc12 tested with Guanidinoacetate N-methyltransferase (Homo sapiens).
Reply: 0

Ask: Find activity change, negative = inhibition for CCCn1c(=O)c2cc(F)ccc2n2c(SCc3c(F)cccc3Cl)nnc12 on Guanidinoacetate N-methyltransferase (Homo sapiens) and write it down.
Reply: 0.239

Ask: Consider the compound CC(C)CCN1CC2(CCCN(C(=O)c3ccn(C)c(=O)c3)C2)CCC1=O (stereo not given) tested on Guanidinoacetate N-methyltransferase (Homo sapiens); state its activity change, negative = inhibition.
Reply: 8.37

Ask: Please report activity change, negative = inhibition with Guanidinoacetate N-methyltransferase (Homo sapiens) for item O=C(CCc1nnc2n(CCc3ccccc3)c(=O)c3ccccc3n12)NCCCN1CCCCC1 .
Reply: 0

Ask: Provide activity change, negative = inhibition, recorded with Guanidinoacetate N-methyltransferase (Homo sapiens), of CC(C)Cn1c(=O)c2ccccc2n2c(CCC(=O)NCCc3ccc(Cl)cc3)nnc12
Reply: -1.54

Ask: State, for Guanidinoacetate N-methyltransferase (Homo sapiens), measured activity change, negative = inhibition of the compound listed here: Cc1ccc2c(c1)c(-n1cccc1)c1n2CC(C)(C(=O)NC2CCCCC2)N(Cc2ccccn2)C1=O (stereo not given)
Reply: 0.484

Ask: Param request: activity change, negative = inhibition | system Guanidinoacetate N-methyltransferase (Homo sapiens) | item O=C(CCCc1nnc2n3nc(-c4ccccc4)nc3c3ccccc3n12)N1CCC(N2CCCCC2)CC1
Reply: -7.55

Ask: System Guanidinoacetate N-methyltransferase (Homo sapiens). Read-out activity change, negative = inhibition. Item O=C(Cc1ccsc1)Nc1ccc2c(N3CCCC3)ncnc2c1 . Report value.
Reply: 4.54

Ask: Provide the reported activity change, negative = inhibition (system: Guanidinoacetate N-methyltransferase (Homo sapiens)) for CCCC1c2cccn2CCN1C(=O)Nc1ccc(Br)c(C)c1 (stereo not given)
Reply: -2.02

Ask: GET activity change, negative = inhibition where system = Guanidinoacetate N-methyltransferase (Homo sapiens) and item = O=C(O)c1ccc2c(c1)C1C=CCC1C(c1cccc(F)c1)N2 (stereo not given)
Reply: 2.71

Ask: Specify the recorded activity change, negative = inhibition for CC1CC(C)CN(S(=O)(=O)c2ccc3c(c2)oc(=O)n3CC(=O)Nc2ccc(Cl)cc2)C1 (stereo not given) , system: Guanidinoacetate N-methyltransferase (Homo sapiens).
Reply: -1.24

Ask: Look up Guanidinoacetate N-methyltransferase (Homo sapiens) data: activity change, negative = inhibition of NC(=O)C1(N2CCCCC2)CCN(c2nc3c(S(=O)(=O)c4ccccc4)nnn3c3ccccc23)CC1 , then report it.
Reply: 0

Ask: Would you please give the reported activity change, negative = inhibition of CCc1cccc(NC(=O)Cn2c(=O)oc3cc(S(=O)(=O)N4CC(C)CC(C)C4)ccc32)c1 (stereo not given) with Guanidinoacetate N-methyltransferase (Homo sapiens)?
Reply: 0

Ask: Consider the compound Cc1cnccc1NCCn1ccnc1-c1cc2n(n1)CCCNC2 tested on Guanidinoacetate N-methyltransferase (Homo sapiens); state its activity change, negative = inhibition.
Reply: 2.5

Ask: Enter activity change, negative = inhibition (test system Guanidinoacetate N-methyltransferase (Homo sapiens)) for O=C(CCc1nnc2n(CCc3ccccc3)c(=O)c3ccccc3n12)N1CCC(N2CCCCC2)CC1
Reply: 0.438

Ask: For Guanidinoacetate N-methyltransferase (Homo sapiens), give the measured activity change, negative = inhibition of the entry CCCn1c(=O)c2ccccc2n2c(=O)n(CC(=O)c3cccc(Cl)c3)nc12
Reply: -4.81

Ask: Report value: activity change, negative = inhibition, system: Guanidinoacetate N-methyltransferase (Homo sapiens), compound: O=C(NCCc1ccccc1)c1ccc(CN2C(=O)CCn3nc(-c4ccccc4)cc32)cc1
Reply: 0.906

Ask: Check Guanidinoacetate N-methyltransferase (Homo sapiens) data and give activity change, negative = inhibition for CC(C)Cn1c(=O)c2ccccc2n2c(CCC(=O)N3CCN(c4ccccc4F)CC3)nnc12 .
Reply: 0

Ask: Look up and report activity change, negative = inhibition, with Guanidinoacetate N-methyltransferase (Homo sapiens) as system, for O=C1c2ccccc2C(=O)c2cc(S(=O)(=O)N(CCO)CCO)ccc21
Reply: 2.27

Ask: Please indicate recorded activity change, negative = inhibition of COc1ccc(-c2nnn3c2nc(NCCc2ccc(OC)c(OC)c2)c2ccccc23)cc1 measured with Guanidinoacetate N-methyltransferase (Homo sapiens).
Reply: -2.81

Ask: Report activity change, negative = inhibition on Guanidinoacetate N-methyltransferase (Homo sapiens) for this entry: CC1CCN(CCCNC(=O)CCc2nnc3n(Cc4ccccc4Cl)c(=O)c4ccccc4n23)CC1
Reply: -3.45

Ask: Quote activity change, negative = inhibition with test system Guanidinoacetate N-methyltransferase (Homo sapiens) for CCCC1=Nc2cc(C(=O)NCCCN3CCCCC3CC)ccc2Sc2ccc(C)cc21 (stereo not given)
Reply: 6.53

* * *

Target desc: Dual specificity protein kinase CLK4 (Homo sapiens) (UniProt Q9HAZ1)
Sequence (Q9HAZ1 whole entry, looked up): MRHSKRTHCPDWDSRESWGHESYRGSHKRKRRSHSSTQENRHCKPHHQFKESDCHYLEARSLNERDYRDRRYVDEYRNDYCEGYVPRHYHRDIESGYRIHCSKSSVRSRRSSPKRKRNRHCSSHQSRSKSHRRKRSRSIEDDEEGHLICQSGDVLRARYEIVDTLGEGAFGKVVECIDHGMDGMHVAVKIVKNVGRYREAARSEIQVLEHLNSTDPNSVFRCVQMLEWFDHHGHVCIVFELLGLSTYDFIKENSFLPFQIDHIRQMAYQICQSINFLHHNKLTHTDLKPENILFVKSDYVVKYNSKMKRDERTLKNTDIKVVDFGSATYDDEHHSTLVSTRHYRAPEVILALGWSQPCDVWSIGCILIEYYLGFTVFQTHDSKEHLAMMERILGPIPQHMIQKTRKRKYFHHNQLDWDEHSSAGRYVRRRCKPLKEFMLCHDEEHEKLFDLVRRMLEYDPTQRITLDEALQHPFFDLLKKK
Assay name: qHTS Assay for Inhibitors of CDC-like Kinase 4 (ADP-Glo Assay) (AID 1771); also: nearly all actives have a fitted effect of over 70% in size
Conditions: recombinant CLK4, ADP-Glo luminescence; series mostly up to 80 µM
Inconclusive results are not listed. Active and inactive are the calls of the source. The call rests on the fitted dose curve; in most records, active means well fitted inhibition curve with a large enough effect; inconclusive means small, poorly fitted or top-dose-only effect; inactive means flat fitted curve, though single readings scatter.
Please state which outcome applies, choosing from active, inactive

Ask: Lab log entry: CCNc1ncc2nc(-c3ccccc3)c(=O)n(CCC#N)c2n1 — outcome as called in the assay?
Reply: inactive

Ask: Could you please tell me the result logged for COc1ccccc1CNc1cc(-c2cccnc2)ncn1 in this assay?
Reply: active

Ask: Called result for CCNc1ncc2nc(-c3ccc(OC)cc3)c(=O)n(C)c2n1
Reply: inactive

Ask: Could you please tell me the result logged for FC(F)(F)c1ccccc1-c1nc(NCc2cccnc2)c2ccccc2n1 in this assay?
Reply: inactive

Ask: Which result was noted for this compound in the test: CN(C)c1ccc(-c2cc(N(C)Cc3ccco3)ncn2)cc1
Reply: active

Ask: Write down the call the test reported for this compound. Item: COc1ccc(Oc2ncc3nc(-c4cc(F)cc(F)c4)c(=O)n(C4CC4)c3n2)cc1
Reply: inactive

Ask: What did this assay record as the result for COCCn1c(=O)c(CCc2ccccc2)nc2cnc(N(C)C)nc21 ?
Reply: inactive

Ask: Could you kindly confirm the outcome this assay logged for N#Cc1ccccc1-c1ccc2ncnc(NCc3cccnc3)c2c1 ?
Reply: active

Ask: In this assay, the call recorded for COc1ccccc1-c1nccc(N2CCN(C)CC2)n1 was what?
Reply: inactive

* * *

Target desc: Phenylethanolamine N-methyltransferase (Homo sapiens)
Assay name: Confirmatory Screen for Target Class Profiling of Small Molecule Inhibitors of Methyltransferases (AID 1745852)
Conditions: MTase-Glo luminescence, SAH detection, recombinant enzyme; measured here: PNMT max response; stronger effect = lower value
Task for the reader: assign each of the following molecules its reported activity.
Give the value in % but do not write % after it.

Ask: Specify measured activity for CC(C)CCNC(=O)c1ccc2c(=O)[nH]c3c(C(=O)NC4CCCC4)sc(=S)n3c2c1 .
Reply: -38.7

Ask: Look up activity of O=C(NCc1ccc2c(c1)OCO2)c1sc(=S)n2c1[nH]c(=O)c1cc(Cl)ccc12 and report it.
Reply: -48.4

Ask: # return recorded activity for entry COc1ccc(C2CC(=O)c3cc(-c4nc(-c5cccc([N+](=O)[O-])c5)cs4)c(=O)n(-c4ccccc4N)c3C2)cc1 (stereo not given)
Reply: -5.29

Ask: Find the measured activity of CC(=O)NC1CC2(CCN(Cc3ccc(O)cc3)CC2)c2ccccc21 (stereo not given) and report it.
Reply: 5.3

Ask: State, in one line, measured activity of COc1ccc(S(=O)(=O)NC[C@H]2Cn3c(-c4ccc(Cl)cc4)cnc3CO2)cc1
Reply: -17.1

Ask: Tell me its activity given CCC1CCCCN1CCCNC(=O)Cn1ccc2cc(S(=O)(=O)N3CCCCC3)ccc21 (stereo not given) as the entry.
Reply: -1.74

Ask: Item CC(NC(=O)c1ccc2c(=O)nc3c(-c4cccc(F)c4)n[nH]n3c2c1)c1ccc(F)cc1 (stereo not given) : provide activity
Reply: -25.5

Ask: Dear colleague, please send me the reported activity for CC(=O)Nc1ccc2c(c1)C1C=CCC1C(c1ccccc1F)N2 (stereo not given) when you can.
Reply: -27.7

Ask: Supply recorded activity for O=C(CCn1c(=O)[nH]c2cc(S(=O)(=O)N3CCCCC3)ccc21)Nc1ccc(Cl)cc1 here.
Reply: -3.3

Ask: State, in one line, measured activity of Cc1cc(-c2cc3c(cn2)N(C)CCN(C)C3)ccn1
Reply: 3.56

Ask: Supply activity value. Item: CC(C)Cn1c(=O)c2ccccc2n2c(CCC(=O)N3CCC(Cc4ccccc4)CC3)nnc12
Reply: -9.36

Ask: Look up activity of CC1CCCCC1NC(=O)C1(C)Cn2c(cc3sccc32)C(=O)N1Cc1ccc(Cl)cc1 (stereo not given) and report it.
Reply: -8.77

Ask: Provide measured activity value, entry: Cc1ccccc1Sc1ccc(/C=C2\SC(=S)NC2=O)cc1[N+](=O)[O-]
Reply: -30.1

Ask: Respond only with activity recorded for O=C(NCCCN1CCc2ccccc2C1)C1CCc2ncc(-c3ccc(F)cc3)n2C1 (stereo not given)
Reply: -4.05

Ask: State its activity for this molecule: O=C1c2ccccc2C(=O)c2cc(S(=O)(=O)Nc3ccc(Br)cc3)ccc21
Reply: -18.5

Ask: Identify measured activity associated with CCc1ccc(N2C(=O)c3cc4sccc4n3CC2(C)C(=O)NC2CCCCCC2)cc1 (stereo not given)
Reply: -7.25

Ask: Annotate the molecule O=C(CCc1nnc2n(CCc3ccccc3)c(=O)c3ccccc3n12)N1CCC(N2CCCCC2)CC1 with its measured activity.
Reply: 0

Ask: Return activity for the following molecule: COc1ccc(CCN2C(=O)c3ccc(-c4ccco4)n3CC2(C)C(=O)NC2CCCC2)cc1OC (stereo not given)
Reply: -5.82

Ask: Identify measured activity corresponding to CC1CC(C)CN(S(=O)(=O)c2ccc3c(c2)oc(=O)n3CC(=O)Nc2cccc(F)c2)C1 (stereo not given)
Reply: -52.9

Ask: Indicate the recorded activity value for this molecule: Cc1ccc(N(C)S(=O)(=O)c2ccc3c(c2)n(C)c(=O)n3C)cc1
Reply: -7.47

Ask: Read the entry O=C(NCc1cccc(F)c1)c1nc2c(o1)CCN(CC1CCCC1)CC2 and write its reported activity.
Reply: -10.1

Ask: For the molecule COc1ccc(NC(=O)CCc2ccnc(N3CCCC3)c2)c(OC)c1 , give its measured activity value.
Reply: -2.38

Ask: In one line, give reported activity of the entry O=C(c1cc(-c2ccccc2)n[nH]1)N1CCc2c(nc(-c3ccccc3)[nH]c2=O)C1 .
Reply: 5.63

Ask: Given the molecule Cc1cccc(N2CCN(C(=O)CCc3nnc4n(CC(C)C)c(=O)c5ccccc5n34)CC2)c1C , write its reported activity.
Reply: 4.08

Ask: Quickly give me recorded activity for O=C(CCc1nnc2n(Cc3ccc(Cl)cc3)c(=O)c3ccccc3n12)NCCN1CCCC1
Reply: 0
